Biological target: human HER2 (23-652) (Homo sapiens, UniProt P04626)
Sequence (P04626 23-652): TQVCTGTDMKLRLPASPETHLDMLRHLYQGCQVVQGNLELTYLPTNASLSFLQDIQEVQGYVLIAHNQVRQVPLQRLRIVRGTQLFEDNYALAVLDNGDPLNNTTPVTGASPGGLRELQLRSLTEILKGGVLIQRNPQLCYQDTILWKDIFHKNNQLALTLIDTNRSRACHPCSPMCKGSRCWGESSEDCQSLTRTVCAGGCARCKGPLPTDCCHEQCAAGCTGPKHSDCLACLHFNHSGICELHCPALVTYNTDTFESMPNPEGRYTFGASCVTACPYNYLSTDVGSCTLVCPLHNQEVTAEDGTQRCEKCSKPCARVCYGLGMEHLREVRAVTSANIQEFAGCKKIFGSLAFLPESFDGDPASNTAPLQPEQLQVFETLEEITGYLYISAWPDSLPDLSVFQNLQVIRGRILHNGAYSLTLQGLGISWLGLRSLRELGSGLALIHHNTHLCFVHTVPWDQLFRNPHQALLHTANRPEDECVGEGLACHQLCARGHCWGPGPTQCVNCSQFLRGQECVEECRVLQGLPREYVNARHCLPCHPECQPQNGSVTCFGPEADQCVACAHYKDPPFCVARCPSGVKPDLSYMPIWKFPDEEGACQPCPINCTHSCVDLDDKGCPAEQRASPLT
Test: TR-FRET competition assay for peptide potency, human HER2
Assay type: binding
Design: towards human HER2 (23-652) and mouse HER2 (23-653); made in house; host or cells: mammalian cells
Settings: TR-FRET competition with Cy5 labeled peptide probe, 0.1 nM human HER2, 24 h incubation; read-out: huHER2 TR-FRET IC50
metric: pIC50
As a rule, pIC50 stands for the negative log10 of the concentration, concentration in M.

Summary for this molecule, COCCOCCOCCOCCOCCOCCOCCOCCOCCOCCOCCOCCC(=O)N[C@H]1CCCC(=O)NC[C@@H](C(=O)N(C)[C@@H](Cc2ccc(F)cc2)C(=O)N[C@@H](CCCCNC(=O)CN2CCN(CC(=O)O)CCN(CC(=O)O)CCN(CC(=O)O)CC2)C(N)=O)N(C)C(=O)[C@H](C2CC2)NC(=O)[C@H](Cc2c[nH]c3ccccc23)NC(=O)[C@H](Cc2c[nH]c3ccc(O)cc23)NC(=O)[C@H](CCCCNC(C)=O)N(C)C(=O)[C@H](CCc2ccccc2)N(C)C(=O)[C@H](CO)NC(=O)[C@H](Cc2ccc(O)cc2)NC1=O : pIC50 is 10.00

====

Biological target: mouse HER2 (23-653) (Mus musculus, UniProt P70424)
Experiment: TR-FRET competition assay for peptide potency, mouse HER2
Assay type: binding
Design: mouse HER2 (23-653) using a Cy5 labeled peptide as a probe; made in house; host or cells: mammalian cells
Conditions: TR-FRET competition with Cy5 labeled peptide probe, 0.1 nM mouse HER2, 24 h incubation; read-out: moHER2 TR-FRET IC50
pIC50: −log10 of the molar value. Where a name gives a salt, the structure may show the parent alone. Starred links: 1 amine or outer side, 2 acyl side, 3 side chain; linkers in the order of their positions; H or OH if unused. Positions of bridges follow the written chain, without caps; N, C: chain ends. Non-standard residues stand in square brackets, D forms with d. Residues, ends and D or L forms follow the SMILES beside them. Trp(5-OH) = N[C@@H](Cc1c[nH]c2ccc(O)cc12)C(=O)O; NMePhe(4-F) = CN[C@@H](Cc1ccc(F)cc1)C(=O)O; X2 = O=C([C@H](Cc1ccc(O)nc1)N[*:1])[*:2]; Lys(N3) = [N-]=[N+]=NCCCC[C@H](N)C(=O)O; NMehPhe = CN[C@@H](CCc1ccccc1)C(=O)O; Glutaryl = O=C(CCCC(=O)[*:2])[*:1]; Aad = N[C@@H](CCCC(=O)O)C(=O)O; Gly(cPr) = N[C@H](C(=O)O)C1CC1; NMehCys = CN[C@@H](CCS)C(=O)O; NMeK = CN[C@@H](CCCCN)C(=O)O; NMeDap = CN[C@@H](CN)C(=O)O; NMeS = CN[C@@H](CO)C(=O)O; hCys = N[C@@H](CCS)C(=O)O
Assign yes (1) to entries whose pIC50 meets or exceeds 8; assign no (0) to the rest.

Worked set:
INSERT INTO measurements (molecule, class_name) VALUES
  ('CC(=O)NCCCC[C@H]1C(=O)N[C@@H](Cc2c[nH]c3ccc(O)cc23)C(=O)N[C@@H](Cc2c[nH]c3ccccc23)C(=O)N[C@@H](C2CC2)C(=O)N(C)[C@H](C(=O)N(C)[C@@H](Cc2ccc(F)cc2)C(N)=O)CCSSCC[C@H](N)C(=O)N[C@@H](Cc2ccc(O)cc2)C(=O)N[C@@H](CO)C(=O)N(C)[C@@H](CCc2ccccc2)C(=O)N1C [Example A55, TFA salt] (H-[hCys]YS[NMehPhe][NMeK](Ac)[Trp(5-OH)]W[Gly(cPr)][NMehCys][NMePhe(4-F)]-NH2; disulfide 1-9)', 'no (0)'),
  ('COCCOCCOCCOCCOCCOCCOCCOCCOCCOCCOCCOCCC(=O)N[C@H]1CCCC(=O)NC[C@@H](C(=O)N(C)[C@@H](Cc2ccc(F)cc2)C(=O)N[C@@H](CCCCNC(=O)CN2CCN(CC(=O)O)CCN(CC(=O)O)CCN(CC(=O)O)CC2)C(N)=O)N(C)C(=O)[C@H](C2CC2)NC(=O)[C@H](Cc2c[nH]c3ccccc23)NC(=O)[C@H](Cc2c[nH]c3ccc(O)cc23)NC(=O)[C@H](CCCCNC(C)=O)N(C)C(=O)[C@H](CCc2ccccc2)N(C)C(=O)[C@H](CO)NC(=O)[C@H](Cc2ccc(O)cc2)NC1=O [Example B2]', 'yes (1)'),
  ('CC(=O)N[C@H]1CCC(=O)NC[C@@H](C(=O)N(C)[C@@H](Cc2ccc(F)cc2)C(N)=O)N(C)C(=O)[C@H](C2CC2)NC(=O)[C@H](Cc2c[nH]c3ccccc23)NC(=O)[C@H](Cc2c[nH]c3ccc(O)cc23)NC(=O)[C@H](CO)N(C)C(=O)[C@H](CCc2ccccc2)N(C)C(=O)[C@H](CO)NC(=O)[C@H](Cc2ccc(O)nc2)NC1=O [Example A1] (Ac-E[X2]S[NMehPhe][NMeS][Trp(5-OH)]W[Gly(cPr)][NMeDap][NMePhe(4-F)]-NH2; lactam 1-9)', 'no (0)');

query: Given CC(=O)NCCCC[C@H]1C(=O)N[C@@H](Cc2c[nH]c3ccc(O)cc23)C(=O)N[C@H](Cc2c[nH]c3ccccc23)C(=O)N[C@@H](C2CC2)C(=O)N(C)[C@H](C(=O)N(C)[C@@H](Cc2ccc(F)cc2)C(=O)N[C@@H](CCCCNC(=O)CN2CCN(CC(=O)O)CCN(CC(=O)O)CCN(CC(=O)O)CC2)C(N)=O)CNC(=O)CCC[C@H](NC(C)=O)C(=O)N[C@@H](Cc2ccc(O)cc2)C(=O)N[C@@H](CO)C(=O)N(C)[C@@H](CCc2ccccc2)C(=O)N1C [Example C31] , state whether its pIC50 is at least 8.
result: no (0)

query: Given CC(=O)NCCCC[C@H]1C(=O)N[C@@H](Cc2c[nH]c3ccc(O)cc23)C(=O)N[C@@H](Cc2c[nH]c3ccccc23)C(=O)N[C@@H](C2CC2)C(=O)N(C)[C@H](C(=O)N(C)[C@@H](Cc2ccc(F)cc2)C(=O)N[C@@H](CCCCNC(=O)CN2CCN(CC(=O)O)CCN(CC(=O)O)CCN(CC(=O)O)CC2)C(=O)O)CNC(=O)CCC[C@H](NC(C)=O)C(=O)N[C@@H](Cc2ccc(O)cc2)C(=O)N[C@@H](CO)C(=O)N(C)[C@@H](CCc2ccccc2)C(=O)N1C , state whether its pIC50 is at least 8.
result: yes (1)

query: Given CC(=O)NCCCC[C@H]1C(=O)N[C@@H](Cc2c[nH]c3ccc(O)cc23)C(=O)N[C@@H](Cc2c[nH]c3ccccc23)C(=O)N[C@@H](C2CC2)C(=O)N(C)[C@H](C(=O)N(C)[C@@H](Cc2ccc(F)cc2)C(N)=O)CNC(=O)CCCC(=O)N[C@@H](Cc2ccc(O)cc2)C(=O)N[C@@H](CO)C(=O)N(C)[C@@H](CCc2ccccc2)C(=O)N1C [Example A7] (YS[NMehPhe][NMeK](Ac)[Trp(5-OH)]W[Gly(cPr)][NMeDap][NMePhe(4-F)]-NH2; linker N-8 via Glutaryl) , state whether its pIC50 is at least 8.
result: no (0)

query: Given CC(=O)NCCCC[C@H]1C(=O)N[C@@H](Cc2c[nH]c3ccc(O)cc23)C(=O)N[C@@H](Cc2c[nH]c3ccccc23)C(=O)N[C@@H](C2CC2)C(=O)N(C)[C@H](C(=O)N(C)[C@@H](Cc2ccc(F)cc2)C(=O)N[C@@H](CCCCN=[N+]=[N-])C(N)=O)CNC(=O)CCC[C@H](NC(C)=O)C(=O)N[C@@H](Cc2ccc(O)cc2)C(=O)N[C@@H](CO)C(=O)N(C)[C@@H](CCc2ccccc2)C(=O)N1C [Example A74] (Ac-[Aad]YS[NMehPhe][NMeK](Ac)[Trp(5-OH)]W[Gly(cPr)][NMeDap][NMePhe(4-F)][Lys(N3)]-NH2; lactam 1-9) , state whether its pIC50 is at least 8.
result: yes (1)

====

Target: mouse HER2 (23-653) (Mus musculus)
Experiment: TR-FRET competition assay for peptide potency, mouse HER2
Assay type: binding
Set-up: mouse HER2 (23-653) using a Cy5 labeled peptide as a probe; made in house; host or cells: mammalian cells
Settings: TR-FRET competition with Cy5 labeled peptide probe, 0.1 nM mouse HER2, 24 h incubation; read-out: moHER2 TR-FRET IC50
metric: pIC50
As a rule, pIC50 stands for the negative log10 of the concentration, concentration in M.

Summary for this molecule, CC(=O)N[C@H]1CCCC(=O)NC[C@@H](C(=O)N(C)[C@@H](Cc2ccc(F)cc2)C(=O)N[C@@H](CCCCNC(=O)CN2CCN(CC(=O)O)CCN(CC(=O)O)CCN(CC(=O)O)CC2)C(N)=O)N(C)C(=O)[C@H](C2CC2)NC(=O)[C@H](Cc2c[nH]c3ccccc23)NC(=O)[C@H](Cc2c[nH]c3ccc(O)cc23)NC(=O)[C@H](CCCCNC(=O)CC(=O)O)N(C)C(=O)[C@H](CCc2ccccc2)N(C)C(=O)[C@H](CO)NC(=O)[C@H](Cc2ccc(O)cc2)NC1=O [Example C19] : pIC50 is 8.12
